- assay method text: physchem
- Assay type: physicochemical
- run conditions: 37 °C, pH 6, aqueous buffer
assay endpoint: solubility

I'd like to know its solubility. The compound in question is CCOC(=O)C1=C(COCCN)NC(C)=C(C(=O)OC)C1c1ccccc1Cl.CCS(=O)(=O)O (stereo not shown) [Ethanesulfonate, amlodipine ethanesulfonate]
> 200 mg/mL

---

- assay method text: physchem
- Type: physicochemical
- run conditions: 37 °C, pH 7.4, aqueous buffer
assay endpoint: solubility

Entry CCOC(=O)C1=C(COCCN)NC(C)=C(C(=O)OC)C1c1ccccc1Cl.CCS(=O)(=O)O (stereo not shown) [Ethanesulfonate, amlodipine ethanesulfonate] : reported solubility = ?
> 200 mg/mL

The measured values listed here are drawn from patent US6903124B2.
